Recorded values, source ChEMBL document CHEMBL5154848.

Measurement target: 3-hydroxy-3-methylglutaryl-coenzyme A reductase (Cricetulus griseus, UniProt P00347)
Sequence (P00347 whole entry): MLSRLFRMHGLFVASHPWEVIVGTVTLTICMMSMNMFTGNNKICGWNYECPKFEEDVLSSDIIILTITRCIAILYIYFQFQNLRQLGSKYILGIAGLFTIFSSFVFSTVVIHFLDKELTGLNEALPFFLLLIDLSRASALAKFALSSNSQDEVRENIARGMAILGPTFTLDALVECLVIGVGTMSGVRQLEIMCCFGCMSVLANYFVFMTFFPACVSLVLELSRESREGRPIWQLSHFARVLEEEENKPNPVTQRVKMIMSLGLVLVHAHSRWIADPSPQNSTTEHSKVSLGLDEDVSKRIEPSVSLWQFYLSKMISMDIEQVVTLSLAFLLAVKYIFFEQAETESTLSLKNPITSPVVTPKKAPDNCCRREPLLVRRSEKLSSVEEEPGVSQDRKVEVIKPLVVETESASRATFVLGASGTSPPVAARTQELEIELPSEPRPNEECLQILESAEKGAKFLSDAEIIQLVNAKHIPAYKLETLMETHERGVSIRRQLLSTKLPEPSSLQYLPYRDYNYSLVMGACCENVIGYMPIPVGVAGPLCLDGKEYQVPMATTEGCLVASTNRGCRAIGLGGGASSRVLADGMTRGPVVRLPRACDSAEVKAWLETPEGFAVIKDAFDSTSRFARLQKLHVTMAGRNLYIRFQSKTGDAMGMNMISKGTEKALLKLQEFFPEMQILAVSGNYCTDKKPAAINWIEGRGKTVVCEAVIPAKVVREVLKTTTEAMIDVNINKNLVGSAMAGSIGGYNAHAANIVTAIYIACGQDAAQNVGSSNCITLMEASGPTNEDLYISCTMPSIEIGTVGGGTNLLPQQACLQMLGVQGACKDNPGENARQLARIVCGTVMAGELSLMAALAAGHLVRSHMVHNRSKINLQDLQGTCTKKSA
Assay details: Induction of degradation of hamster HMGCR (TM1-8)-GFP (1 to 346 residues) transfected in CHO-7 cells incubated for 16 hrs in sterol-depleted medium by fluorescence based microplate reader assay
Type: cell-based
pEC50: −log10 of the molar value.
Reported endpoint: pEC50

- CNC(=O)CC[C@@H](C)[C@H]1CC[C@H]2[C@@H]3CC=C4C(C)(C)c5c(cnn5C(C)=O)C[C@]4(C)[C@H]3CC[C@]12C: 6.09
- CC(=O)n1ncc2c1C(C)(C)C1=CC[C@H]3[C@@H]4CC[C@H]([C@H](C)CCC(=O)Nc5ccc(C)cc5)[C@@]4(C)CC[C@@H]3[C@@]1(C)C2: 5.27
- C[C@H](CCCC(C)(C)O)[C@H]1CC[C@H]2[C@@H]3[C@@H](O)C=C4C(C)(C)[C@@H](O)CC[C@]4(C)[C@H]3CC[C@]12C: 6.39
- C[C@H](CCC(=O)O)[C@H]1CC[C@H]2[C@@H]3CC=C4C(C)(C)c5nccnc5C[C@]4(C)[C@H]3CC[C@]12C: 5.30

I: C[C@H](CCC(=O)O)[C@H]1CC[C@H]2[C@@H]3CC=C4C(C)(C)c5nonc5C[C@]4(C)[C@H]3CC[C@]12C
II: Cc1nc2c(o1)C(C)(C)C1=CC[C@H]3[C@@H]4CC[C@H]([C@H](C)CCC(=O)N5CCOCC5)[C@@]4(C)CC[C@@H]3[C@@]1(C)C2
[in] When I and II are compared, which has the higher number for pEC50? Field: selected label. Fill in the label of the entry you choose.
[out] I
(I: 5.24, II: 4.55)

----------
Measurement target: 3-hydroxy-3-methylglutaryl-coenzyme A reductase (Cricetulus griseus, UniProt P00347)
Assay details: Induction of degradation of hamster HMGCR (TM1-8)-GFP (1 to 346 residues) transfected in CHO-7 cells incubated for 16 hrs in sterol-depleted medium by fluorescence based microplate reader assay
Type: cell-based
Reported endpoint: EC50 (µM)

- CCCC(=O)n1cnc2c1C(C)(C)C1=CC[C@H]3[C@@H]4CC[C@H]([C@H](C)CCC(=O)N5CCOCC5)[C@@]4(C)CC[C@@H]3[C@@]1(C)C2: 0.52

1: CC(C)C(=O)n1cnc2c1C(C)(C)C1=CC[C@H]3[C@@H]4CC[C@H]([C@H](C)CCC(=O)N5CCOCC5)[C@@]4(C)CC[C@@H]3[C@@]1(C)C2
2: CC(=O)n1cnc2c1C(C)(C)C1=CC[C@H]3[C@@H]4CC[C@H]([C@H](C)CCCCC(=O)N5CCOCC5)[C@@]4(C)CC[C@@H]3[C@@]1(C)C2
3: CC(=O)n1ncc2c1C(C)(C)C1=CC[C@H]3[C@@H]4CC[C@H]([C@H](C)CCC(=O)Nc5nc6c(C)cccc6s5)[C@@]4(C)CC[C@@H]3[C@@]1(C)C2
4: C=C(C)C(=O)n1cnc2c1C(C)(C)C1=CC[C@H]3[C@@H]4CC[C@H]([C@H](C)CCC(=O)N5CCOCC5)[C@@]4(C)CC[C@@H]3[C@@]1(C)C2
[in] Falling order of EC50, please. Put the labels in the order asked and list them.
[out] 3, 2, 4, 1

----------
Measurement target: 3-hydroxy-3-methylglutaryl-coenzyme A reductase (Cricetulus griseus)
Assay details: Induction of degradation of hamster HMGCR (TM1-8)-GFP (1 to 346 residues) transfected in CHO-7 cells incubated for 16 hrs in sterol-depleted medium by fluorescence based microplate reader assay
Assay type: cell-based
Reported endpoint: EC50 (nM)

Guide cases for EC50, answers given:
• CC(=O)n1cnc2c1C(C)(C)C1=CC[C@H]3[C@@H]4CC[C@H]([C@H](C)C(=O)N5CCOCC5)[C@@]4(C)CC[C@@H]3[C@@]1(C)C2 = 410
• C=CCC(O)(CC=C)CCC[C@@H](C)[C@H]1CC[C@H]2[C@@H]3[C@@H](O)C=C4C(C)(C)[C@@H](O)CC[C@]4(C)[C@H]3CC[C@]12C = 410
• C=CCC(O)(CC=C)CCC[C@@H](C)[C@H]1CC[C@H]2[C@@H]3[C@@H](O)C=C4C(C)(C)[C@@H](O)CC[C@]4(C)[C@H]3CC[C@]12C.Cl = 430
• C[C@H](CCC(=O)O)[C@H]1CC[C@H]2[C@@H]3CC=C4C(C)(C)c5sc(N)nc5C[C@]4(C)[C@H]3CC[C@]12C = 4940

A: CCOC(=O)c1n[nH]c2c1C[C@@]1(C)C(=CC[C@H]3[C@@H]4CC[C@H]([C@H](C)CCC(=O)N5CCOCC5)[C@@]4(C)CC[C@@H]31)C2(C)C
B: CC(=O)n1ncc2c1C(C)(C)C1=CC[C@H]3[C@@H]4CC[C@H]([C@H](C)CCC(=O)N5CCCCC5)[C@@]4(C)CC[C@@H]3[C@@]1(C)C2
[in] Record comparison, field EC50: mark the lower of A and B . Respond with the label that goes with your answer.
[out] A

----------
Assay details: Toxicity in human SV589 cells assessed as cholesterol accumulation in lysosome at 10 uM incubated for 16 hrs by immunofluorescence based confocal microscopy
Type: cell-based
Condition description: sv-589, 16 h
Reported endpoint: Activity

* CC(=O)n1ncc2c1C(C)(C)C1=CC[C@H]3[C@@H]4CC[C@H]([C@H](C)CCC(=O)N5CCOCC5)[C@@]4(C)CC[C@@H]3[C@@]1(C)C2 | Non-Toxic
* C[C@H](CCC(=O)O)[C@H]1CC[C@H]2[C@@H]3CC=C4C(C)(C)c5nccnc5C[C@]4(C)[C@H]3CC[C@]12C | Non-Toxic
* C[C@H](CCCCC(C)(C)O)[C@H]1CC[C@H]2[C@@H]3[C@@H](O)C=C4C(C)(C)[C@@H](O)CC[C@]4(C)[C@H]3CC[C@]12C | Toxic
* C=C(C)C(=O)n1cnc2c1C(C)(C)C1=CC[C@H]3[C@@H]4CC[C@H]([C@H](C)CCC(=O)N5CCOCC5)[C@@]4(C)CC[C@@H]3[C@@]1(C)C2 | Non-Toxic
* CCC(O)(CC)CCC[C@@H](C)[C@H]1CC[C@H]2[C@@H]3[C@@H](O)C=C4C(C)(C)[C@@H](O)CC[C@]4(C)[C@H]3CC[C@]12C | Toxic

Could you now look at the following molecule, please?
[in] # query: Activity of entry CC(=O)n1ncc2c1C(C)(C)C1=CC[C@H]3[C@@H]4CC[C@H]([C@H](C)CCC(=O)O)[C@@]4(C)CC[C@@H]3[C@@]1(C)C2
[out] Non-Toxic

----------
Measurement target: 3-hydroxy-3-methylglutaryl-coenzyme A reductase (Cricetulus griseus)
Assay details: Induction of degradation of hamster HMGCR (TM1-8)-GFP (1 to 346 residues) transfected in CHO-7 cells incubated for 16 hrs in sterol-depleted medium by fluorescence based microplate reader assay
Format: cell-based
Reported endpoint: EC50 (nM)

Here are 2 compounds together with their reported answers.
• C[C@H](CCCCC(C)(C)O)[C@H]1CC[C@H]2[C@@H]3[C@@H](O)C=C4C(C)(C)[C@@H](O)CC[C@]4(C)[C@H]3CC[C@]12C = 410
• CC(=O)n1ncc2c1C(C)(C)C1=CC[C@H]3[C@@H]4CC[C@H]([C@H](C)CCC(=O)O)[C@@]4(C)CC[C@@H]3[C@@]1(C)C2 = 2660

I: CC(=O)n1ncc2c1C(C)(C)C1=CC[C@H]3[C@@H]4CC[C@H]([C@H](C)CCC(=O)NCCN5CCOCC5)[C@@]4(C)CC[C@@H]3[C@@]1(C)C2
II: CCNC(=O)CC[C@@H](C)[C@H]1CC[C@H]2[C@@H]3CC=C4C(C)(C)c5c(cnn5C(C)=O)C[C@]4(C)[C@H]3CC[C@]12C
III: CC(=O)n1ncc2c1C(C)(C)C1=CC[C@H]3[C@@H]4CC[C@H]([C@H](C)CCC(=O)Nc5ncc(C)s5)[C@@]4(C)CC[C@@H]3[C@@]1(C)C2
IV: C[C@H](CCC(=O)N1CCOCC1)[C@H]1CC[C@H]2[C@@H]3CC=C4C(C)(C)c5nc(N)ncc5C[C@]4(C)[C@H]3CC[C@]12C
[in] Arrange these compounds by their EC50, starting with the largest number. Form entry: ranked labels (order as requested).
[out] III, IV, I, II
